Test system: L1210
Assay: The ratio of IC50 of the inhibitor (assayed in L1210 cells) in presence and absence of thymidine
Assay type: functional, Mus musculus
Listing of recorded Thymidine shift by entry.
Form: value (number only, do not type unit).

>>> number("Cc1nc(O)c2c(Sc3ccncc3)c(O)ccc2n1")
1

Exercise: Fill blank: measured Thymidine shift of the compound Cc1ccc2nc(N)nc(O)c2c1Sc1ccnnc1 is ____.
Key: 17.6

====

Biological target: Thymidylate synthase (Escherichia coli, UniProt C3SWJ7)
Sequence (C3SWJ7 whole entry): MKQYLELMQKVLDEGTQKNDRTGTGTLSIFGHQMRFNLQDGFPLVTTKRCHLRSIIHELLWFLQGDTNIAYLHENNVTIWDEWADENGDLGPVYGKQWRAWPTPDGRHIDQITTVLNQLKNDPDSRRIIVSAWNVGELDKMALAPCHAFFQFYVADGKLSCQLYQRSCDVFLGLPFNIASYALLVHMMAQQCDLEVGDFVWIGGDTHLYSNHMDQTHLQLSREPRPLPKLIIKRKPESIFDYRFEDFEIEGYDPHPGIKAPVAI
Test: Inhibition of purified Escherichia coli Thymidylate synthase
pKi listing for selected compounds.
Hey, just a heads up that pKi is the negative log base 10 of the concentration in molar.

Solved entries (count: 2):
>>> number("Cc1nc(O)c2c(Sc3ccncc3)c(O)ccc2n1")
4.29
>>> number("Cc1nc(O)c2c(Sc3cccnc3)c(C)ccc2n1")
5.77

Exercise: Lab request: please report pKi under test system Thymidylate synthase (Escherichia coli, UniProt C3SWJ7) for Cc1nc(O)c2c(Sc3ccnc(C(F)(F)F)c3)c(C)ccc2n1
Key: 6.64

Exercise: Kindly state the measured pKi obtained for Cc1nc(O)c2c(Sc3ccnnc3)c(C)ccc2n1 with Thymidylate synthase (Escherichia coli, UniProt C3SWJ7).
Key: 6.22
